# test_method_notes: Cell viability assay (MTS)
# Assay type: cell-based
# test_context: human, 10 µM, non-infected Huh7 cells, normalized to DMSO
molecules and their reported viability at 10 µM
Give me the value, and tack the unit on after it.

Some solved cases for reference:
chemical_structure: O=[N+]([O-])c1ccc(Cn2ccc3c(NCc4cccc(Cl)c4Cl)ncnc32)cc1
viability at 10 µM: 77%
//
chemical_structure: Nc1ccc(Cn2ccc3c(NCc4cccc(Cl)c4)ncnc32)cc1
viability at 10 µM: 38%
//
chemical_structure: Clc1cccc(CNc2ncnc3c2ccn3Cc2cccc3ccccc23)c1
viability at 10 µM: 73%
//
chemical_structure: N#Cc1ccc(Cn2ccc3c(NCc4ccccc4Cl)ncnc32)cc1
viability at 10 µM: 76%

We next turn to a different molecule, shown below.
Qu. Reported viability at 10 µM, molecule O=[N+]([O-])c1ccc(Cn2ccc3c(NCc4cc(Cl)ccc4Cl)ncnc32)cc1 : ____
Ans. 62%

====

# test_method_notes: Cell viability assay (MTS)
# Type: cell-based
# test_context: human, 10 µM, non-infected Huh7 cells, normalized to DMSO
assay_endpoint: viability at 10 µM (%)
The reply should contain only the number, in %.

Some solved cases for reference:
compound: N#Cc1ccc(Cn2ccc3c(NCc4cccc(Cl)c4Cl)ncnc32)cc1
unit_annotation: %
viability at 10 µM: 78
//
compound: O=[N+]([O-])c1cccc(Cn2ccc3c(NCc4cccc(Cl)c4)ncnc32)c1
unit_annotation: %
viability at 10 µM: 79
//
compound: O=[N+]([O-])c1ccccc1Cn1ccc2c(NCc3cccc(Cl)c3)ncnc21
unit_annotation: %
viability at 10 µM: 93
//
compound: N#Cc1ccc(Cn2ncc3c(NCc4cccc(Cl)c4)ncnc32)cc1
unit_annotation: %
viability at 10 µM: 88

Qu. Reported viability at 10 µM, compound FC(F)(F)c1cccc(Cn2ccc3c(NCc4cccc(Cl)c4)ncnc32)c1 : ____
Ans. 61

Qu. Reported viability at 10 µM, compound N#Cc1ccc(Cn2ccc3c(NCc4cccc(Cl)c4)ncnc32)cc1 : ____
Ans. 68

Qu. Reported viability at 10 µM, compound N#Cc1cccc(Cn2ccc3c(NCc4cccc(Cl)c4)ncnc32)c1 : ____
Ans. 60

====

# Tested on: ZIKV
# test_method_notes: ZIKV reporter assay (luciferase-expressing ZIKV PAN1 Nluc in Huh7 cells)
# Format: cell-based
# test_context: Zika virus, Huh-7; Huh7, MOI 0.2, 72 hpi
compounds and their reported pEC50
// pEC50 is dimensionless: -log10 of concentration (M)

Some solved cases for reference:
compound: N#Cc1ccc(Cn2ccc3c(NCc4cccc(Cl)c4)ncnc32)cc1
observed_result: 5.39

compound: O=[N+]([O-])c1ccc(Cn2ccc3c(NCc4ccc(Cl)c(Cl)c4)ncnc32)cc1
observed_result: 5.24

Qu. Reported pEC50, compound O=[N+]([O-])c1ccc(Cn2ccc3c(NCc4cccc(Cl)c4)ncnc32)cc1 : ____
Ans. 5.28

Qu. Reported pEC50, compound N#Cc1cccc(Cn2ccc3c(NCc4cccc(Cl)c4)ncnc32)c1 : ____
Ans. 5.50

Qu. Reported pEC50, compound Cc1cc(N)c2cc(NC(=O)Nc3ccc4nc(C)cc(N)c4c3)ccc2n1 [NSC 12155, reference compound] : ____
Ans. 5.66

Qu. Reported pEC50, compound Clc1cccc(CNc2ncnc3c2ccn3Cc2ccnc3ccccc23)c1 : ____
Ans. 6.03

====

# test_method_notes: Cell viability assay (MTS)
# Type: cell-based
# test_context: human, 10 µM, non-infected Huh7 cells, normalized to DMSO
Rule: viability at 10 µM below 70% gives 1 (yes), anything at or above gives 0 (no).

Recorded results for 4 molecules are shown here.
chemical_structure: CS(=O)(=O)c1cccc(Cn2ccc3c(NCc4cccc(Cl)c4)ncnc32)c1
cat: 0 (no)

chemical_structure: O=[N+]([O-])c1ccc(Cn2ncc3c(NCc4cccc(Cl)c4)ncnc32)cc1
cat: 0 (no)

chemical_structure: O=[N+]([O-])c1ccc(Cn2ccc3c(NCc4cccc5ccccc45)ncnc32)cc1
cat: 1 (yes)

chemical_structure: Nc1ncnc2c1ccn2Cc1ccc([N+](=O)[O-])cc1
cat: 0 (no)

Qu. Field: below-cutoff. Rule: recorded viability at 10 µM strictly less than 70%. Subject: Clc1cccc(CNc2ncnc3c2ccn3Cc2ccc3nc(Cl)ccc3c2)c1
Ans. 1 (yes)

====

# test_method_notes: Cell viability assay (MTS)
# Assay type: cell-based
# test_context: human, non-infected Huh7 cells, Huh7 cells, 72 hours
assay_endpoint: CC50 at 72 h

Some solved cases for reference:
chemical_structure: O=[N+]([O-])c1ccc(Cn2cnc3c(NCc4cccc(Cl)c4)ncnc32)cc1
CC50 at 72 h: 24.5 µM
--
chemical_structure: N#Cc1cccc(Cn2ccc3c(NCc4cccc(Cl)c4)ncnc32)c1
CC50 at 72 h: 15.3 µM
--
chemical_structure: N#Cc1ccc(Cn2cnc3c(NCc4cccc(Cl)c4)ncnc32)cc1
CC50 at 72 h: 49.3 µM

We next turn to a different molecule, shown below.
Qu. Reported CC50 at 72 h, molecule O=[N+]([O-])c1ccc(Cn2ccc3c(NCc4ccc(Cl)c(Cl)c4)ncnc32)cc1 : ____
Ans. 26.8 µM

====

compounds and their reported CC50 at 72 h
# test_method_notes: Cell viability assay (MTS)
# Format: cell-based
# test_context: human, non-infected Huh7 cells, Huh7 cells, 72 hours
The reply should contain only the number, in µM.

compound: N#Cc1ccc(Cn2ccc3c(NCc4cccc(Cl)c4)ncnc32)cc1
CC50 at 72 h / µM: 20.6

Qu. Reported CC50 at 72 h, compound N#Cc1ccc(Cn2ncc3c(NCc4cccc(Cl)c4)ncnc32)cc1 : ____
Ans. 17.4

Qu. Reported CC50 at 72 h, compound O=[N+]([O-])c1ccc(Cn2ccc3c(NCc4cc(Cl)ccc4Cl)ncnc32)cc1 : ____
Ans. 26.9

Qu. Reported CC50 at 72 h, compound Clc1cccc(CNc2ncnc3c2ccn3Cc2ccnc3ccccc23)c1 : ____
Ans. 5.67

Qu. Reported CC50 at 72 h, compound O=[N+]([O-])c1ccc(Cn2ccc3c(NCc4cccc(Cl)c4)ncnc32)cc1 : ____
Ans. 20

Qu. Reported CC50 at 72 h, compound Cc1cc(N)c2cc(NC(=O)Nc3ccc4nc(C)cc(N)c4c3)ccc2n1 [NSC 12155, reference compound] : ____
Ans. 23

Qu. Reported CC50 at 72 h, compound N#Cc1ccc(Cn2ccc3c(NCc4cccc(Cl)c4)ncnc32)c2ccccc12 : ____
Ans. 39.6

====

# Test system: ZIKV
# test_method_notes: ZIKV titer-reduction assay (plaque assay)
# Type: cell-based, Zika virus
# test_context: Zika virus, Huh-7, 72 h; 8.5 µM, Huh7, MOI 0.2, 72 hpi
Label scheme for inhibition at 8.5 µM: lower than 80% is 0.0, 80% and above is 1.0.

compound: O=[N+]([O-])c1ccc(Cn2ccc3c(NCc4ccccc4Cl)ncnc32)cc1
cat: 1.0

compound: O=[N+]([O-])c1ccc(Cn2ccc3c(NCc4cc(Cl)ccc4Cl)ncnc32)cc1
cat: 0.0

compound: Cc1cc(N)c2cc(NC(=O)Nc3ccc4nc(C)cc(N)c4c3)ccc2n1 [NSC 12155, reference compound]
cat: 0.0

compound: N#Cc1ccc(Cn2cnc3c(NCc4cccc(Cl)c4)ncnc32)cc1
cat: 1.0

Below: the item to evaluate.
Qu. API: above_or_equal(metric=inhibition at 8.5 µM, cutoff=80%) for item N#Cc1ccc(Cn2ncc3c(NCc4cccc(Cl)c4)ncnc32)cc1
Ans. 1.0

====

# Test system: ZIKV
# test_method_notes: ZIKV titer-reduction assay (plaque assay)
# Type: cell-based, Zika virus
# test_context: Zika virus, Huh-7, 72 h; 8.5 µM, Huh7, MOI 0.2, 72 hpi
compounds and their reported inhibition at 8.5 µM
The reply should contain only the number, in %.

Some solved cases for reference:
chemical_structure: Clc1cccc(CNc2ncnc3c2ccn3Cc2cccc3ccccc23)c1
target_or_system: ZIKV
inhibition at 8.5 µM (%): 66
--
chemical_structure: Clc1cccc(CNc2ncnc3c2ccn3Cc2ccccc2)c1
target_or_system: ZIKV
inhibition at 8.5 µM (%): 68

Qu. Enter reported inhibition at 8.5 µM observed with ZIKV for N#Cc1ccc(Cn2ccc3c(NCc4cccc(Cl)c4)ncnc32)cc1
Ans. 97

Qu. Enter reported inhibition at 8.5 µM observed with ZIKV for O=[N+]([O-])c1ccc(Cn2ccc3c(NCc4ccc(Cl)c(Cl)c4)ncnc32)cc1
Ans. 98

Qu. Enter reported inhibition at 8.5 µM observed with ZIKV for CS(=O)(=O)c1cccc(Cn2ccc3c(NCc4cccc(Cl)c4)ncnc32)c1
Ans. 92

Qu. Enter reported inhibition at 8.5 µM observed with ZIKV for O=[N+]([O-])c1ccc(Cn2ncc3c(NCc4cccc(Cl)c4)ncnc32)cc1
Ans. 86

====

molecules and their reported viability at 10 µM
# test_method_notes: Cell viability assay (MTS)
# Format: cell-based
# test_context: human, 10 µM, non-infected Huh7 cells, normalized to DMSO

Qu. Reported viability at 10 µM, molecule N#Cc1ccc(Cn2ccc3c(NCc4cccc(Cl)c4)ncnc32)c2ccccc12 [Compound 15] : ____
Ans. 84%

Qu. Reported viability at 10 µM, molecule Cc1cccc(CNc2ncnc3c2ccn3Cc2ccc(C#N)cc2)c1 [Compound 25] : ____
Ans. 33%

Qu. Reported viability at 10 µM, molecule N#Cc1ccc(Cn2cnc3c(NCc4cccc(Cl)c4)ncnc32)cc1 [Compound 30] : ____
Ans. 94%

Qu. Reported viability at 10 µM, molecule O=[N+]([O-])c1ccc(Cn2ccc3c(NCc4ccccc4Cl)ncnc32)cc1 [Compound 19] : ____
Ans. 80%

Qu. Reported viability at 10 µM, molecule O=[N+]([O-])c1ccc(Cn2ccc3c(NCc4ccc(Cl)c(Cl)c4)ncnc32)cc1 [Compound 23] : ____
Ans. 80%

Qu. Reported viability at 10 µM, molecule Clc1cccc(CNc2ncnc3c2ccn3Cc2ccnc3ccccc23)c1 [Compound 14] : ____
Ans. 48%
